# Tested on: TNF-α production in THP-1 cells
# METHOD DESCRIPTION: TNF-α Production Assay in THP-1 Cells (LPS stimulated)
# Assay type: cell-based
# CONDITION LABEL: Homo sapiens, THP-1, 24 h
# Procedure: THP-1 cells maintained in RPMI 1640 medium (Thermo Scientific) supplemented with 10% FBS (Thermo Scientific), 100 units/mL penicillin and 0.1 mg/mL streptomycin (Thermo Scientific) were seeded into 96-well plates at the density of 0.2 million cells per well and then treated with compounds for 24 h. Lipopolysaccharide was subsequently added at the final concentration of 1 μg/mL for 24 h. […] FRET signals were measured using a PHERAstar FSX reader (BMG Labtech).
Item-by-item account of pIC50
Quick note: pIC50 values are minus log10 of concentrations in mol/L.

Record excerpt, results attached:
Input line: Which pIC50 value is on record for `CC(C)(O)c1cc2nn(C3CCN(C4CCN(C(=O)[C@@H]5CCN(c6cc(F)c([C@H]7CCC(=O)NC7=O)c(F)c6)C5)CC4)CC3)cc2cc1NC(=O)c1cccc(C(F)(F)F)n1` ?
Output line: 7.42

Input line: Which pIC50 value is on record for `C[C@@H]1CN(C(=O)C2CN(c3cc(F)c([C@H]4CCC(=O)NC4=O)c(F)c3)C2)CCN1[C@H]1CC[C@H](n2cc3cc(NC(=O)c4ccc5cc(C#N)cnn45)c(C(C)(C)O)cc3n2)CC1` ?
Output line: 7.89

Input line: Which pIC50 value is on record for `COC[C@@H]1CN([C@H]2CC[C@H](n3cc4cc(NC(=O)c5ccc6cc(C#N)cnn56)c(C(C)(C)O)cc4n3)CC2)CCN1CC1CN(c2cc(F)c([C@H]3CCC(=O)NC3=O)c(F)c2)C1` ?
Output line: 7.77

Further cases:
Input line: Which pIC50 value is on record for `C[C@@H]1CN(C2CN(c3cc(F)c([C@H]4CCC(=O)NC4=O)c(F)c3)C2)CCN1[C@H]1CC[C@H](n2cc3cc(NC(=O)c4ccc5cc(C#N)cnn45)c(C(C)(C)O)cc3n2)CC1` ?
Output line: 7.42

Input line: Which pIC50 value is on record for `CC(C)(O)c1cc2nn(C3CCN([C@H]4CCN(CCc5cc(F)c([C@H]6CCC(=O)NC6=O)c(F)c5)CC4(F)F)CC3)cc2cc1NC(=O)c1ccc2cc(C#N)cnn12` ?
Output line: 6.91

Input line: Which pIC50 value is on record for `CC(C)(O)c1cc2nn(C34CC(N5CCN(CC6CN(c7cc(F)c(N8CCC(=O)NC8=O)c(F)c7)C6)CC5)(C3)C4)cc2cc1NC(=O)c1ccc2cc(C#N)cnn12` ?
Output line: 7.36

Input line: Which pIC50 value is on record for `CC(C)(O)c1cc2nn([C@H]3CC[C@H](N4CCN(C5CN(c6cc(F)c([C@H]7CCC(=O)NC7=O)c(F)c6)C5)CC4)CC3)cc2cc1NC(=O)c1ccc2cc(C#N)cnn12` ?
Output line: 7.57

Input line: Which pIC50 value is on record for `CC(C)(O)c1cc2nn([C@H]3CC[C@H](N4CCN(C(=O)C5CN(c6cc(F)c(N7CCC(=O)NC7=O)c(F)c6)C5)CC4)CC3)cc2cc1NC(=O)c1cccc(C(F)(F)F)n1` ?
Output line: 7.28

Input line: Which pIC50 value is on record for `COc1cc2nn([C@H]3CC[C@H](CN4CCN(C(=O)[C@H]5CCN(c6ccc(N7CCC(=O)NC7=O)cc6)C5)CC4)CC3)cc2cc1NC(=O)c1cccn(C2CC2)c1=O` ?
Output line: 7.11

Input line: Which pIC50 value is on record for `CC(C)(O)c1cc2nn([C@H]3CC[C@H](N4CCN(CC5CN(c6cc(F)c([C@H]7CCC(=O)NC7=O)c(F)c6)C5)CC4)CC3)cc2cc1NC(=O)c1ccc2cc(C#N)cnn12` ?
Output line: 8.05
